Cited source: the Immune Epitope Database (IEDB)

assayed_system: HLA-C*07:02
assay_comment: IEDB peptide-MHC binding, purified MHC/direct/fluorescence; filed as Kd, often an IC50 or EC50 that approximates it; bounds were set here for any values at or beyond the usual limits of such assays
assay_setup: source organism: Vibrio cholerae
assay_readout: pKd
In simple prose, pKd is minus the logarithm base ten of a concentration in moles per litre.

Dear colleague, I am looking for the recorded pKd of the following sequence: `TRAPAPFPL`
7.35

* * *

assayed_system: HLA-A*23:01
assay_comment: IEDB peptide-MHC binding, purified MHC/competitive/radioactivity; filed as Kd, often an IC50 or EC50 that approximates it; bounds were set here for any values at or beyond the usual limits of such assays
assay_setup: source organism: Dengue virus 2 Jamaica/1409/1983
Measured Kd, listed per entry.
State just the number; it will be interpreted in nM.

Known results for sequences:
item_sequence=SYSMCTGKF assay_readout=Kd readout_units=nM measured_result=142
item_sequence=LWYAQIQPHW assay_readout=Kd readout_units=nM measured_result=203

Query sequence follows.
Dear colleague, I am looking for the recorded Kd of the following sequence: `TWALCEALTL`
511

* * *

assayed_system: HLA-A*24:02
assay_comment: IEDB peptide-MHC binding, purified MHC/competitive/fluorescence; bounds were set here for any values at or beyond the usual limits of such assays
assay_setup: source organism: Vaccinia virus
Measured IC50, listed per entry.
State just the number; it will be interpreted in µM.

item_sequence=LYPNVCIFG assayed_system=HLA-A*24:02 assay_readout=IC50 measured_result=0.0716

Query sequence follows.
Dear colleague, I am looking for the recorded IC50 of the following sequence: `YSKDSRNKL`
19.7

* * *

assayed_system: HLA-B*58:01
assay_comment: IEDB peptide-MHC binding, purified MHC/direct/fluorescence; filed as Kd, often an IC50 or EC50 that approximates it; bounds were set here for any values at or beyond the usual limits of such assays
assay_setup: source organism: Mycobacterium tuberculosis F11
assay_readout: pKd
In simple prose, pKd is minus the logarithm base ten of a concentration in moles per litre.

Report pKd for `VSTAVAALF` tested on HLA-B*58:01.
7.49

* * *

assayed_system: HLA-B*57:01
assay_comment: IEDB peptide-MHC binding, purified MHC/competitive/fluorescence; filed as Kd, often an IC50 or EC50 that approximates it; bounds were set here for any values at or beyond the usual limits of such assays
assay_setup: source organism: Entamoeba histolytica HM-1:IMSS
assay_readout: Kd (nM)
State just the number; it will be interpreted in nM.

Dear colleague, I am looking for the recorded Kd of the following sequence: `WAKLLKQKW`
227

* * *

assayed_system: HLA-B*57:01
assay_comment: IEDB peptide-MHC binding, purified MHC/competitive/fluorescence; filed as Kd, often an IC50 or EC50 that approximates it; bounds were set here for any values at or beyond the usual limits of such assays
assay_setup: source organism: Zaire ebolavirus
pKd: −log10 of the molar value.
Measured pKd, listed per entry.

item_sequence=KEGKLQCRI measured_result="≤ 4.70"
item_sequence=HPLARTAKV measured_result="≤ 4.70"

Query sequence follows.
Dear colleague, I am looking for the recorded pKd of the following sequence: `RDRFKRTSF`
≤ 4.70

* * *

assayed_system: HLA-B*07:02
assay_comment: IEDB peptide-MHC binding, purified MHC/direct/fluorescence; filed as Kd, often an IC50 or EC50 that approximates it; bounds were set here for any values at or beyond the usual limits of such assays
assay_setup: source organism: Campylobacter jejuni RM1221
pKd: −log10 of the molar value.
assay_readout: pKd

Dear colleague, I am looking for the recorded pKd of the following sequence: `KSNEKNMDF`
≤ 4.70

* * *

assayed_system: HLA-A*29:02
assay_comment: IEDB peptide-MHC binding, purified MHC/competitive/fluorescence; filed as Kd, often an IC50 or EC50 that approximates it; bounds were set here for any values at or beyond the usual limits of such assays
assay_setup: source organism: Bacillus anthracis str. A0488
assay_readout: Kd

Dear colleague, I am looking for the recorded Kd of the following sequence: `KLWASFFQG`
≥ 20 µM

* * *

assayed_system: HLA-B*07:02
assay_comment: IEDB peptide-MHC binding, purified MHC/direct/fluorescence; filed as Kd, often an IC50 or EC50 that approximates it; bounds were set here for any values at or beyond the usual limits of such assays
assay_setup: source organism: Camelpox virus M-96
pKd: −log10 of the molar value.
assay_readout: pKd

Dear colleague, I am looking for the recorded pKd of the following sequence: `GLYRLNFRR`
≤ 4.70

* * *

assayed_system: HLA-B*46:01
assay_comment: IEDB peptide-MHC binding, purified MHC/direct/fluorescence; filed as Kd, often an IC50 or EC50 that approximates it; bounds were set here for any values at or beyond the usual limits of such assays
assay_setup: source organism: Vibrio parahaemolyticus
pKd: −log10 of the molar value.
assay_readout: pKd

Dear colleague, I am looking for the recorded pKd of the following sequence: `RSTLANGWY`
≤ 4.70

* * *

assayed_system: HLA-A*24:02
assay_comment: IEDB peptide-MHC binding, purified MHC/competitive/radioactivity; filed as Kd, often an IC50 or EC50 that approximates it; bounds were set here for any values at or beyond the usual limits of such assays
assay_setup: source organism: Triticum aestivum
assay_readout: Kd

Dear colleague, I am looking for the recorded Kd of the following sequence: `QYPLGQGSF`
1.45 µM

* * *

assayed_system: HLA-A*03:01
assay_comment: IEDB peptide-MHC binding, purified MHC/direct/fluorescence; filed as Kd, often an IC50 or EC50 that approximates it; bounds were set here for any values at or beyond the usual limits of such assays
assay_setup: source organism: Influenza A virus (A/chicken/Hubei/wm/1997(H5N1))
pKd: −log10 of the molar value.
assay_readout: pKd

Dear colleague, I am looking for the recorded pKd of the following sequence: `EKPKFLPDL`
≤ 4.70

* * *

assayed_system: HLA-C*03:03
assay_comment: IEDB peptide-MHC binding, purified MHC/direct/fluorescence; filed as Kd, often an IC50 or EC50 that approximates it; bounds were set here for any values at or beyond the usual limits of such assays
assay_setup: source organism: Yersinia pestis Nepal516
pKd: −log10 of the molar value.
assay_readout: pKd

Dear colleague, I am looking for the recorded pKd of the following sequence: `YGIPFPGSL`
≥ 9.00

* * *

assayed_system: HLA-B*39:01
assay_comment: IEDB peptide-MHC binding, purified MHC/competitive/fluorescence; filed as Kd, often an IC50 or EC50 that approximates it; bounds were set here for any values at or beyond the usual limits of such assays
assay_setup: source organism: Bacillus anthracis str. A0488
assay_readout: pKd
In simple prose, pKd is minus the logarithm base ten of a concentration in moles per litre.

Dear colleague, I am looking for the recorded pKd of the following sequence: `SQMPPQKIM`
5.52

* * *

assayed_system: HLA-A*03:01
assay_comment: IEDB peptide-MHC binding, purified MHC/competitive/fluorescence; filed as Kd, often an IC50 or EC50 that approximates it; bounds were set here for any values at or beyond the usual limits of such assays
assay_setup: source organism: Bacillus anthracis str. A0488
assay_readout: Kd

Dear colleague, I am looking for the recorded Kd of the following sequence: `KLWASFFQG`
≥ 20 µM

* * *

assayed_system: HLA-A*01:01
assay_comment: IEDB peptide-MHC binding, purified MHC/competitive/radioactivity; filed as Kd, often an IC50 or EC50 that approximates it; bounds were set here for any values at or beyond the usual limits of such assays
assay_setup: source organism: Lymphocytic choriomeningitis virus (strain Armstrong)
Measured Kd, listed per entry.
State just the number; it will be interpreted in µM.

item_sequence=CSANNSHHY assay_readout=Kd readout_units=µM measured_result=0.0102

Query sequence follows.
Report Kd for `STAPSSPPPY` tested on HLA-A*01:01.
0.034

* * *

Measured Kd, listed per entry.
assayed_system: HLA-A*02:06
assay_comment: IEDB peptide-MHC binding, purified MHC/competitive/radioactivity; filed as Kd, often an IC50 or EC50 that approximates it; bounds were set here for any values at or beyond the usual limits of such assays
assay_setup: source organism: Vaccinia virus WR
State just the number; it will be interpreted in µM.

Known results for sequences:
item_sequence=TTTFITVLT assayed_system=HLA-A*02:06 assay_readout=Kd measured_result=1.09
item_sequence=YLPEVISTIA assayed_system=HLA-A*02:06 assay_readout=Kd measured_result=0.0177
item_sequence=NIKISLNEI assayed_system=HLA-A*02:06 assay_readout=Kd measured_result=1.5
item_sequence=FLQISRVNDL assayed_system=HLA-A*02:06 assay_readout=Kd measured_result=0.583
item_sequence=SLVSKHWELT assayed_system=HLA-A*02:06 assay_readout=Kd measured_result=2.68
item_sequence=YLGIFKNNDV assayed_system=HLA-A*02:06 assay_readout=Kd measured_result=0.285

Dear colleague, I am looking for the recorded Kd of the following sequence: `VLTSVDIET`
0.0137

Dear colleague, I am looking for the recorded Kd of the following sequence: `RLLKNMKQCT`
11.9

Dear colleague, I am looking for the recorded Kd of the following sequence: `VIVPDIKLDA`
0.883

Dear colleague, I am looking for the recorded Kd of the following sequence: `KLPTWLGAAI`
0.295

Dear colleague, I am looking for the recorded Kd of the following sequence: `VTYNIKPVIV`
0.358

Dear colleague, I am looking for the recorded Kd of the following sequence: `IAIFNNRNLA`
0.89

Dear colleague, I am looking for the recorded Kd of the following sequence: `DQDTMLFASA`
1.72

Dear colleague, I am looking for the recorded Kd of the following sequence: `ITRLEVIGLT`
0.967

Dear colleague, I am looking for the recorded Kd of the following sequence: `LVFNSISARA`
0.702

Dear colleague, I am looking for the recorded Kd of the following sequence: `TIGTIAGGV`
1.14

Dear colleague, I am looking for the recorded Kd of the following sequence: `RVLYDEFVTI`
0.00662

Dear colleague, I am looking for the recorded Kd of the following sequence: `YQNEVTPEYI`
0.00259

Dear colleague, I am looking for the recorded Kd of the following sequence: `LLDEPLSPDT`
7.84

Dear colleague, I am looking for the recorded Kd of the following sequence: `LLTDTIESA`
0.00588

Dear colleague, I am looking for the recorded Kd of the following sequence: `NLEELTTVFI`
12.3

Dear colleague, I am looking for the recorded Kd of the following sequence: `SLCPTKKLV`
11.9

Dear colleague, I am looking for the recorded Kd of the following sequence: `MLDDFSAGA`
0.114

Dear colleague, I am looking for the recorded Kd of the following sequence: `LQQNNSFII`
0.423

Dear colleague, I am looking for the recorded Kd of the following sequence: `FTHTTAFFNT`
0.051
